All figures here come from patent EP0259014A2.

// values below are MIC; system is Escherichia coli K-12 R5
Number first, unit second: that is the form wanted.

According to the records, this compound NC[C@@H]1CC[C@@H](N)[C@@H](O[C@H]2[C@H](F)[C@@H](O[C@H]3O[C@H](CO)[C@@H](O)[C@H](N)[C@H]3O)[C@H](N)C[C@@H]2N)O1 [Compound No. 4, 5,3',4'-Trideoxy-5-fluorokanamycin B] displays MIC of 100 µg/mL

According to the records, this compound NC[C@@H]1CC[C@@H](N)[C@@H](O[C@H]2[C@H](F)[C@@H](O[C@H]3O[C@H](CO)[C@@H](O)[C@H](N)[C@H]3O)[C@H](NC(=O)[C@@H](O)CN)C[C@@H]2N)O1 [Compound No. 12] displays MIC of 50 µg/mL

According to the records, this compound NC[C@H](O)C(=O)N[C@@H]1C[C@H](N)[C@@H](O[C@H]2O[C@H](CN)[C@@H](O)[C@H](O)[C@H]2N)[C@H](F)[C@H]1O[C@H]1O[C@H](CO)[C@@H](O)[C@H](N)[C@H]1O [Compound No. 5] displays MIC of 12.5 µg/mL

According to the records, this compound NCC[C@H](O)C(=O)N[C@@H]1C[C@H](N)[C@@H](O[C@H]2O[C@H](CN)[C@@H](O)C[C@H]2N)[C@H](F)[C@H]1O[C@H]1O[C@H](CO)[C@@H](O)[C@H](N)[C@H]1O [Compound No. 9] displays MIC of 3.12 µg/mL

* * *

For each entry below, report its MIC value.
# System: Pseudomonas aeruginosa A3
# procedure.details: MIC, serial dilution on Mueller Hinton agar
# Assay type: cell-based
# measurement.conditions: Pseudomonas aeruginosa A3; Mueller Hinton agar, 37°C, 18 hours; read-out: MIC.
Could you give me the number in µg/mL? Just the number is fine.

Here "NC[C@@H]1CC[C@@H](N)[C@@H](O[C@H]2[C@H](F)[C@@H](O[C@H]3O[C@H](CO)[C@@H](O)[C@H](N)[C@H]3O)[C@H](NC(=O)[C@@H](O)CN)C[C@@H]2N)O1" was tested on Pseudomonas aeruginosa A3, and its MIC came to 0.39

Here NCC(O)C(=O)N[C@@H]1C[C@H](N)[C@@H](O[C@H]2O[C@H](CN)[C@@H](O)C[C@H]2N)[C@H](F)[C@H]1O[C@H]1O[C@H](CO)[C@@H](O)[C@H](N)[C@H]1O (stereo partly shown) was tested on Pseudomonas aeruginosa A3, and its MIC came to 0.39

* * *

# System: Pseudomonas aeruginosa A3
# procedure.details: MIC, serial dilution on Mueller Hinton agar
# Assay type: cell-based
# measurement.conditions: Pseudomonas aeruginosa A3; Mueller Hinton agar, 37°C, 18 hours; read-out: MIC.
For each entry below, report its MIC value.
Number first, unit second: that is the form wanted.

According to the records, this compound NC[C@@H]1C[C@H](O)[C@@H](N)[C@@H](O[C@H]2[C@H](F)[C@@H](O[C@H]3O[C@H](CO)[C@@H](O)[C@H](N)[C@H]3O)[C@H](N)C[C@@H]2N)O1 [Compound No. 3, 5,4'-Dideoxy-5-fluorokanamycin B] displays MIC of 3.12 µg/mL

According to the records, this compound NC[C@@H]1CC[C@@H](N)[C@@H](O[C@H]2[C@H](F)[C@@H](O[C@H]3O[C@H](CO)[C@@H](O)[C@H](N)[C@H]3O)[C@H](N)C[C@@H]2N)O1 [Compound No. 4, 5,3',4'-Trideoxy-5-fluorokanamycin B] displays MIC of 0.39 µg/mL

* * *

# System: Providencia sp. Pv 16
# procedure.details: MIC, serial dilution on Mueller Hinton agar
# Type: cell-based
# measurement.conditions: SP.PV16; Providencia sp. Pv 16, resistance mechanism AAC(2'); Mueller Hinton agar, 37°C, 18 hours; read-out: MIC.
measurement.name: MIC (µg/mL)
Could you give me the number in µg/mL? Just the number is fine.

According to the records, this molecule NC[C@H](O)C(=O)N[C@@H]1C[C@H](N)[C@@H](O[C@H]2O[C@H](CN)[C@@H](O)[C@H](O)[C@H]2N)[C@H](F)[C@H]1O[C@H]1O[C@H](CO)[C@@H](O)[C@H](N)[C@H]1O [Compound No. 5] displays MIC of 0.78

According to the records, this molecule NC[C@@H]1CC[C@@H](N)[C@@H](O[C@H]2[C@H](F)[C@@H](O[C@H]3O[C@H](CO)[C@@H](O)[C@H](N)[C@H]3O)[C@H](N)C[C@@H]2N)O1 [Compound No. 4, 5,3',4'-Trideoxy-5-fluorokanamycin B] displays MIC of 12.5

According to the records, this molecule NCC[C@H](O)C(=O)N[C@@H]1C[C@H](N)[C@@H](O[C@H]2O[C@H](CN)[C@@H](O)[C@H](O)[C@H]2N)[C@H](F)[C@H]1O[C@H]1O[C@H](CO)[C@@H](O)[C@H](N)[C@H]1O [Compound No. 6] displays MIC of 0.78

According to the records, this molecule NCC[C@H](O)C(=O)N[C@@H]1C[C@H](N)[C@@H](O[C@H]2O[C@H](CN)[C@@H](O)C[C@H]2N)[C@H](F)[C@H]1O[C@H]1O[C@H](CO)[C@@H](O)[C@H](N)[C@H]1O [Compound No. 9] displays MIC of 0.78

* * *

# procedure.details: in vivo
# measurement.conditions: mouse, iv
measurement.name: LD50 (mg/kg)
Could you give me the number in mg/kg? Just the number is fine.

According to the records, this molecule NCC[C@H](O)C(=O)N[C@@H]1C[C@H](N)[C@@H](O[C@H]2O[C@H](CN)CC[C@H]2N)[C@H](O)[C@H]1O[C@H]1O[C@H](CO)[C@@H](O)[C@H](N)[C@H]1O [habekacin, reference compound] displays LD50 of 90

According to the records, this molecule "NCC[C@H](O)C(=O)N[C@@H]1C[C@H](N)[C@@H](O[C@H]2O[C@H](CN)CC[C@H]2N)[C@H](F)[C@H]1O[C@H]1O[C@H](CO)[C@@H](O)[C@H](N)[C@H]1O" displays LD50 of 150

According to the records, this molecule "NC[C@H]1O[C@H](O[C@H]2[C@H](F)[C@@H](O[C@H]3O[C@H](CO)[C@@H](O)[C@H](N)[C@H]3O)[C@H](N)C[C@@H]2N)[C@H](N)C[C@@H]1O" displays LD50 of 200

According to the records, this molecule "NC[C@@H]1CC[C@@H](N)[C@@H](O[C@H]2[C@H](F)[C@@H](O[C@H]3O[C@H](CO)[C@@H](O)[C@H](N)[C@H]3O)[C@H](N)C[C@@H]2N)O1" displays LD50 of 140

* * *

# Test system: Mycobacterium 607
# procedure.details: MIC, serial dilution on Mueller Hinton agar
# Assay type: cell-based
# measurement.conditions: Mycobacterium 607; Mueller Hinton agar, 37°C, incubated for 40 hours; read-out: MIC.
For each entry below, report its MIC value.
Could you give me the number in µg/mL? Just the number is fine.

According to the records, this compound "NC[C@H](O)C(=O)N[C@@H]1C[C@H](N)[C@@H](O[C@H]2O[C@H](CN)[C@@H](O)[C@H](O)[C@H]2N)[C@H](F)[C@H]1O[C@H]1O[C@H](CO)[C@@H](O)[C@H](N)[C@H]1O" displays MIC of 6.25

According to the records, this compound "NCC[C@H](O)C(=O)N[C@@H]1C[C@H](N)[C@@H](O[C@H]2O[C@H](CN)C[C@H](O)[C@H]2N)[C@H](F)[C@H]1O[C@H]1O[C@H](CO)[C@@H](O)[C@H](N)[C@H]1O" displays MIC of 6.25

According to the records, this compound "NCC[C@H](O)C(=O)N[C@@H]1C[C@H](N)[C@@H](O[C@H]2O[C@H](CN)CC[C@H]2N)[C@H](F)[C@H]1O[C@H]1O[C@H](CO)[C@@H](O)[C@H](N)[C@H]1O" displays MIC of 0.78

According to the records, this compound "NCC[C@H](O)C(=O)N[C@@H]1C[C@H](N)[C@@H](O[C@H]2O[C@H](CN)[C@@H](O)C[C@H]2N)[C@H](F)[C@H]1O[C@H]1O[C@H](CO)[C@@H](O)[C@H](N)[C@H]1O" displays MIC of 0.78

According to the records, this compound "NC[C@H](O)C(=O)N[C@@H]1C[C@H](N)[C@@H](O[C@H]2O[C@H](CN)[C@@H](O)C[C@H]2N)[C@H](F)[C@H]1O[C@H]1O[C@H](CO)[C@@H](O)[C@H](N)[C@H]1O" displays MIC of 0.78

* * *

# Test system: Escherichia coli JR66/W677
# procedure.details: microbe, parasite or virus in culture
# Type: cell-based
# measurement.conditions: JR66/W677, 18 h
measurement.name: MIC

Here "NC[C@H]1O[C@H](O[C@H]2[C@H](F)[C@@H](O[C@H]3O[C@H](CO)[C@@H](O)[C@H](N)[C@H]3O)[C@H](N)C[C@@H]2N)[C@H](N)[C@@H](O)[C@@H]1O" was tested on Escherichia coli JR66/W677, and its MIC came to > 100 µg/mL

Here "NC[C@@H]1C[C@H](O)[C@@H](N)[C@@H](O[C@H]2[C@H](F)[C@@H](O[C@H]3O[C@H](CO)[C@@H](O)[C@H](N)[C@H]3O)[C@H](N)C[C@@H]2N)O1" was tested on Escherichia coli JR66/W677, and its MIC came to > 100 µg/mL

Here "NC[C@H]1O[C@H](O[C@H]2[C@H](O)[C@@H](O[C@H]3O[C@H](CO)[C@@H](O)[C@H](N)[C@H]3O)[C@H](N)C[C@@H]2N)[C@H](N)[C@@H](O)[C@@H]1O" was tested on Escherichia coli JR66/W677, and its MIC came to > 100 µg/mL
